target: Metabotropic glutamate receptor 3 (Rattus norvegicus, UniProt P31422); assay: mGlu3 NAM potency via calcium readout, dose response, mGlu3 NAM project, TREx293 cells, Galpha15, calcium flux (AID 651840)
Sequence (P31422 whole entry): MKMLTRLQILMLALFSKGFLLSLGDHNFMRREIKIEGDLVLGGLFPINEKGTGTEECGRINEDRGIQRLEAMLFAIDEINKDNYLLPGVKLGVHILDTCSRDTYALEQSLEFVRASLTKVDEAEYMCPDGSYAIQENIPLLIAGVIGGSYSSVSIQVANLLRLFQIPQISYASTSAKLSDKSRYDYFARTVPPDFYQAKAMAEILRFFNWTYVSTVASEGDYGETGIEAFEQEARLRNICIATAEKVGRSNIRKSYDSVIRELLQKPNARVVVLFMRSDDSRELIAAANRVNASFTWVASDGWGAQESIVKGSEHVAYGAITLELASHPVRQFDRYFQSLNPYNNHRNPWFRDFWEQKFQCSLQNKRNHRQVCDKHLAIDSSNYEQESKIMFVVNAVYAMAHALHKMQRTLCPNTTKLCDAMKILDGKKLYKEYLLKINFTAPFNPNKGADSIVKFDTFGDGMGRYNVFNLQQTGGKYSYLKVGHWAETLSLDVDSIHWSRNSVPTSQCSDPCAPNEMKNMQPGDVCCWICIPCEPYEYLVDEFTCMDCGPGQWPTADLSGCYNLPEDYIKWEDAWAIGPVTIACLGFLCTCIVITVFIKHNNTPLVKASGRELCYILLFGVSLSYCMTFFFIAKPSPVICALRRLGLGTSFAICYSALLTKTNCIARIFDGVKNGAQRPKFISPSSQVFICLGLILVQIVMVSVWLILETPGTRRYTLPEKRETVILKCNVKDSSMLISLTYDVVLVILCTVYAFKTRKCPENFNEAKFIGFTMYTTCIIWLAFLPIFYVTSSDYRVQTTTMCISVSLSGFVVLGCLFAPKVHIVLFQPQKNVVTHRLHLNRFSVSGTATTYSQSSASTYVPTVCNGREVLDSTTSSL
Endpoint: IC50 (nM)
Report as a plain number; the unit nM is understood.

**Query** Any idea what IC50 was measured for `COc1ccc(C#Cc2ccc(C(=O)N3CCC[C@@H](O)C3)cc2F)cc1` ?
**Result** 402

###

Below: a set of entries, each annotated with reported IC50.
target: Genome polyprotein (dengue virus type 2); test: Dengue-2 NS5 methyltransferase inhibitors, primary screen, biochemical, confirmation dose response (AID 588689); assay type: functional
Sequence (P29990 2492-3391 limits assumed): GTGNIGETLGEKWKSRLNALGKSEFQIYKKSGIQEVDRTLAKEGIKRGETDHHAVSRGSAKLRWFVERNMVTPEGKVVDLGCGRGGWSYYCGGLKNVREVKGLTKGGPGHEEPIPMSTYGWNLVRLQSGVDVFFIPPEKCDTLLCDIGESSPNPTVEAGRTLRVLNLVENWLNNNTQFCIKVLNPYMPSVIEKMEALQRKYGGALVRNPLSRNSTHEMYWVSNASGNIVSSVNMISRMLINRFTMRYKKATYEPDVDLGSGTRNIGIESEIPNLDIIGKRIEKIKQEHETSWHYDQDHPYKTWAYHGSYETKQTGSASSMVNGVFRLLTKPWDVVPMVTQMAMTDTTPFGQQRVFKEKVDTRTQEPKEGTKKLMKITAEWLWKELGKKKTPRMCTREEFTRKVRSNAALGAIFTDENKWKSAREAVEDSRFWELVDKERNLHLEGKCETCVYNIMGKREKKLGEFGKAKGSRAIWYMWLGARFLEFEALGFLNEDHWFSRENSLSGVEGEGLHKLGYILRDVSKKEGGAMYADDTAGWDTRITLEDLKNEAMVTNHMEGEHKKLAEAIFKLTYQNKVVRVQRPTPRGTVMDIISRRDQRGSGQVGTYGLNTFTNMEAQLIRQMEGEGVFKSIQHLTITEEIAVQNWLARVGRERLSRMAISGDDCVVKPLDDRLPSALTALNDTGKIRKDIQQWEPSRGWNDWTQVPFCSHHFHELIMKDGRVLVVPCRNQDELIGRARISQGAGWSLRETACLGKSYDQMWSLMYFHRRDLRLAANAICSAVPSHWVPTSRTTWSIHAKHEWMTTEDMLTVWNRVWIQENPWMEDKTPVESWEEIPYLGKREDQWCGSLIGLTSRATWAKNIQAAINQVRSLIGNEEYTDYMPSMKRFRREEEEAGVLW
Calls of active or inactive are those of the source.

Reference set, count: 4
CCCCNC(=O)c1ccc2nc(-c3ccco3)c(-c3ccco3)nc2c1 ... 80.4 µM (active)
CCOc1ccc(-n2c(=S)sc3c(O)nc(SCC(=O)C(C)(C)C)nc32)cc1 ... 54.2 µM (active)
Cc1sc(C(C2C(=O)CC(C)(C)CC2=O)C2C(=O)CC(C)(C)CC2=O)cc1[N+](=O)[O-] ... 29.4 µM (active)
CCOc1ccc(N2C(=O)NC(=O)/C(=C\c3cc(OC)c(OC)cc3[N+](=O)[O-])C2=O)cc1 ... 27.6 µM (active)

Now examine the next entry.
**Query** Any idea what IC50 was measured for `O=c1cc(-c2ccccc2)oc2cc(O)c(O)c(O)c12` ?
**Result** 35.1 µM (active)

###

Protein target, amino acids: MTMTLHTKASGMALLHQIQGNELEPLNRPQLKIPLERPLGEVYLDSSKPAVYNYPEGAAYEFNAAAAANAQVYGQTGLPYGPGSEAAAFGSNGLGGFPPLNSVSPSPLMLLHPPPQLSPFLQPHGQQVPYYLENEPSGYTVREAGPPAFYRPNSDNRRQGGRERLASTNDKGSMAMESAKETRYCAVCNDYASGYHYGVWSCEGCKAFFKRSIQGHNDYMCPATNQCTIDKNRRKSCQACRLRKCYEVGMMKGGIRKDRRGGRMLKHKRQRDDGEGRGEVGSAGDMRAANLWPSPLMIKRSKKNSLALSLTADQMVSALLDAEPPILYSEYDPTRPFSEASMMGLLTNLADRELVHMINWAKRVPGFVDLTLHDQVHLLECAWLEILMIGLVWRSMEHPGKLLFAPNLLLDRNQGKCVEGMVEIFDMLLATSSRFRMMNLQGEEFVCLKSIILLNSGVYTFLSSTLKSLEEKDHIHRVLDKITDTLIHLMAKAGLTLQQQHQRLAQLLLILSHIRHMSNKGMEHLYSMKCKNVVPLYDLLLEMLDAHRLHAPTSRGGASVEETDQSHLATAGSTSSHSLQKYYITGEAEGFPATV
Active and inactive are the calls of the source.
Below: a set of entries, each annotated with reported IC50.

**Query** Any idea what IC50 was measured for Cc1ccc2nc(O)c(C3C(C#N)=C(N)Oc4c3ccc3cccnc43)cc2c1 (centres undefined) ?
**Result** 19.5 µM (active)

**Query** Note, next up: `COc1cc(C)c(S(=O)(=O)NCc2ccc3c(c2)OCO3)cc1C`
**Result** > 50 µM (not active)

**Query** Note, next up: `COc1nnc(-c2ccc(C)c(S(=O)(=O)NCCO)c2)c2ccccc12`
**Result** > 50 µM (not active)

**Query** Note, next up: `O=C(OCn1nnc2ccccc2c1=O)c1cn(-c2ccccc2)nc1-c1cccnc1`
**Result** > 50 µM (not active)

All values here come from ChEMBL document CHEMBL1201862.
